target: human PAC1 receptor (Homo sapiens, UniProt P41586); construct: SHSY-5Y (human neuroblastoma cell line) and RG-2 (rat glioma cell line) cells endogenously express human and rat PAC1 receptors, respectively; endogenous in cells; host or cells: SHSY-5Y human neuroblastoma cells; experiment: LANCE Ultra cAMP accumulation antagonist assay in SHSY-5Y cells; format: cell-based;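 further: inhibition of cAMP accumulation evoked by PAC1 agonist at its EC80 in SHSY-5Y cells endogenously expressing receptor, 30 min preincubation then 15 min agonist, TR-FRET readout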
Sequence (P41586 21-468): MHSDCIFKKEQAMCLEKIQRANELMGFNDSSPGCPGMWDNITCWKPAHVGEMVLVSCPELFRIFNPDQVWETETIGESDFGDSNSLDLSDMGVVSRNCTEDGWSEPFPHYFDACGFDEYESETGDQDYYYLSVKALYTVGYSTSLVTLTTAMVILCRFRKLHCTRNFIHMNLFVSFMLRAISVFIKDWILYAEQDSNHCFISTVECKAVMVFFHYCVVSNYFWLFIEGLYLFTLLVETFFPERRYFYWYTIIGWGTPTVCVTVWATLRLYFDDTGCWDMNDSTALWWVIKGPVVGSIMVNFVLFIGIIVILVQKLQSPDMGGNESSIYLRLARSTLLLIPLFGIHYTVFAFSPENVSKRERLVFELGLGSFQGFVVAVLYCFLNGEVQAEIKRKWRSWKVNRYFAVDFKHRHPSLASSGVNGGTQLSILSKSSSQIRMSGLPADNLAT
Bridges are numbered along the chain shown (N, C = ends). Where no end group is shown, it is not given here.
Parameter: IC50. Scope: all listed entries.

CDATCQFRKAIDDCARQAHHANVPGSVFKACMKQKKKEWKAGH (disulfide 1-5, 14-31) [compound 8] ... 0.01 to 1 nM
CDATCQFRKAIDDCVRQAHHSNVPGSVWKACMKQKKKEWKAGH (disulfide 1-5, 14-31) [compound 106] ... 0.01 to 1 nM
CDATCQFRKAIDDCFTWSWHSNVPGSVFKACMKQKKKEFKAG-NH2 (disulfide 1-5, 14-31) [compound 135] ... 0.01 to 1 nM
CDATCQFRKAIDDCWVQAWHSNVPGSVFKACMKQKKKEFKAG-NH2 (disulfide 1-5, 14-31) [compound 134] ... 0.01 to 1 nM
CDATCQFRKAIDDCQRQAHHSNVPGNSVFKECMKQKKKEFK-NH2 (disulfide 1-5, 14-32) [compound 288] ... 1 to 100 nM

Data request: Please respond with reported IC50 (system human PAC1 receptor (Homo sapiens, UniProt P41586)) for GCDATCQFRKAIDDCVRQAHHSNVPGSVFKACMKQKKKEWKAGH (disulfide 2-6, 15-32) [SEQ ID NO 88] .
Data returned: 0.01 to 1 nM

Data request: Please respond with reported IC50 (system human PAC1 receptor (Homo sapiens, UniProt P41586)) for CDATCQFRKAIDDCQKQAHHSNVPGSVFKACMKQKKKEFKAW (disulfide 1-5, 14-31) [compound 95] .
Data returned: 1 to 100 nM

Data request: Please respond with reported IC50 (system human PAC1 receptor (Homo sapiens, UniProt P41586)) for CDATCQFRKAIDDCQKQAHHSNVPGSVFKACMLQKKKEFKAG-NH2 (disulfide 1-5, 14-31) [compound 103] .
Data returned: 1 to 100 nM

Data request: Please respond with reported IC50 (system human PAC1 receptor (Homo sapiens, UniProt P41586)) for CDATCQFRKAIDDCARQAHHSNVPGSVFKACLKQKKKEWKAGH (disulfide 1-5, 14-31) [compound 41] .
Data returned: 0.01 to 1 nM

###

biological target: rat PAC1 receptor (Rattus norvegicus); construct: SHSY-5Y (human neuroblastoma cell line) and RG-2 (rat glioma cell line) cells endogenously express human and rat PAC1 receptors, respectively; endogenous in cells; host or cells: RG-2 rat glioma cells; experiment: LANCE Ultra cAMP accumulation antagonist assay in RG-2 cells; format: cell-based;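 further: RG-2 rat glioma cells endogenously expressing PAC1, test peptide preincubated 30 min, then PAC1 agonist added at its EC80 for 15 min, cAMP accumulation read by LANCE Ultra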
Sequence (P32215 20-523): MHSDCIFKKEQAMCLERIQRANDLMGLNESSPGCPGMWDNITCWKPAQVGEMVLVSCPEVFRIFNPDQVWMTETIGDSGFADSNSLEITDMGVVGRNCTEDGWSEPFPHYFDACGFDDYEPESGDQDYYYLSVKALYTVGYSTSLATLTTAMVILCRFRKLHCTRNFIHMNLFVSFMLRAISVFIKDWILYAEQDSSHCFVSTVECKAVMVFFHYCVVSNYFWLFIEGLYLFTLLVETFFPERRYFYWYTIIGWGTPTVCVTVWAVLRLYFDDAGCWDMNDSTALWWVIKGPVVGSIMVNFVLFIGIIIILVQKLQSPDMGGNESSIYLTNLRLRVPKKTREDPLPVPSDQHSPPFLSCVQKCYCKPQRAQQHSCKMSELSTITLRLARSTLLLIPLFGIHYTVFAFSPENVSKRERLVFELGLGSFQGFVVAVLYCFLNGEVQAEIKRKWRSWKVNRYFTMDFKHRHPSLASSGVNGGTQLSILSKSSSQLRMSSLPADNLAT
pIC50: −log10 of the molar value. Bridges are numbered along the chain shown (N, C = ends). Where no end group is shown, it is not given here.
Parameter: pIC50. Scope: all listed entries.

CDATCQFRKAIDDCQKQAHHSNVPGSVFKACMKFRRTLWKAG-NH2 (disulfide 1-5, 14-31) [compound 89] ... 9.00 to 11.00
CDATCQFRKAIDDCQKQAHHSNVPGSVFKACMKQKKKEFKAR (disulfide 1-5, 14-31) [compound 68] ... 9.00 to 11.00
CDATCQFRKAIDDCQKQAHHSNVPGSVFKACLLQKKKEFKAG-NH2 (disulfide 1-5, 14-31) [compound 100] ... 7.00 to 9.00
CDATCQFRKAIDDCHLLAWHANVPGSVFKACMKQKKKEFKAG-NH2 (disulfide 1-5, 14-31) [compound 140] ... 9.00 to 11.00
ACDATCQFRKAIDDCQKQAHHSNVPGSVFKACMKQKKKEFKAG-NH2 (disulfide 2-6, 15-32) [compound 184] ... 9.00 to 11.00

Data request: Give pIC50 for CDATCQFRKAIDDCDRQAHHSNVPGSVFKACMKQKKKEWKAGH (disulfide 1-5, 14-31) [compound 167]
Data returned: 9.00 to 11.00

Data request: Give pIC50 for CDATCQFRKAIDDCQKQAHHSNVPGSVFKACMKQKKKEFKA-NH2 (disulfide 1-5, 14-31) [compound 214]
Data returned: 9.00 to 11.00

Data request: Give pIC50 for CDATCQFRKAIDDCFYQAWHSNVPGSVWKACMKQKKKEFKAG-NH2 (disulfide 1-5, 14-31) [compound 139]
Data returned: 9.00 to 11.00
